Data origin: PubChem BioAssay

Readings of z-score for the listed compounds
- protocolSummary: E. coli growth modulation, two-sided OD650, primary screen, E. coli filamentation project, strain DRC41, 24 h (AID 1093);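 further: MC1000 strain lacking acrAB efflux and sulA so SOS filamentation is blocked; test concentration not given here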
- measurementConditions: OD650, 24 h, higher = more signal, called active from +8 up or from −8 down
testReadout: z-score

structureassmiles=CO[C@@H]1COC(=O)CCC[C@@H](C)[C@H](OC)COC(=O)[C@H](Cc2ccccc2)NC(=O)CC=C[C@H]1C testreadout=z-score valuereported=0.0728
structureassmiles=CCCCc1nc2c(c3c1C[C@H](C)OC3)CN(CCC(C)C)CC2 testreadout=z-score valuereported=0.567
structureassmiles=COCCOC(=O)N1C(=O)[C@@]2(c3cc(C#CCNC(N)=O)ccc31)[C@H](c1ccc(O)cc1)N1[C@H](c3ccccc3)[C@H](c3ccccc3)OC(=O)[C@H]1[C@@H]2C(=O)N1CCCCCCC1 testreadout=z-score valuereported=0.576
structureassmiles=COC(=O)[C@@]1(Cc2ccc(F)cc2)[C@@H]2C(=CC(=O)[C@H]2CC(=O)C(=O)N(C)C)CN1C(=O)c1ccccc1 testreadout=z-score valuereported=-0.399
